Data provenance is PubChem BioAssay (NCATS).

# ASSAY_COMMENT: Quantitative High-Throughput drug screen in 47 multiple myeloma cell lines against the NCATS MIPE library collection: MM1S_ATCC cell viability assay (AID 1918980); further: nearly all actives have a fitted effect of over 45% in size
# PARTICULARS: MM1S myeloma viability, CellTiter-Glo ATP luminescence, 48 h; series mostly up to 45.8 µM
Records with an inconclusive call do not appear. Calls of active or inactive are those of the source. The call rests on the fitted dose curve; in most records, active means well fitted cell-killing curve with a large enough effect; inconclusive means small, poorly fitted or top-dose-only effect, or effect the other way; inactive means no such curve, though single readings can be large or run the other way.
Classes used: active, inactive

compound="COc1cccc2c1C(=O)c1c(O)c3c(c(O)c1C2=O)C[C@@](O)(C(=O)CO)C[C@@H]3O[C@H]1C[C@H](N)[C@H](OC2CCCCO2)[C@H](C)O1 (stereo partly specified)" label=active
compound=O=C(O)C[C@H](O)C[C@H](O)C=Cc1c(C2CC2)nc2ccccc2c1-c1ccc(F)cc1 label=active
compound=CN(CC(=O)N(Cc1ccc(C2CCCCC2)cc1)c1ccc(C(=O)O)c(O)c1)S(=O)(=O)c1c(F)c(F)c(F)c(F)c1F label=active
compound=CN(C)CC[C@H](c1ccc(Cl)cc1)c1ccccn1 label=active
compound=CCOc1cc2c(c(F)c1OCC)C(=N)N(CC(=O)c1cc(N3CCOCC3)c(OC)c(C(C)(C)C)c1)C2 label=active
compound=CC(C)OC(=O)[C@H](C)N[P@](=O)(OC[C@H]1O[C@@H](n2ccc(=O)[nH]c2=O)[C@](C)(F)[C@H]1O)Oc1ccccc1 label=inactive
compound=C[C@H](NC(=O)Cc1cc(F)cc(F)c1)C(=O)N[C@H](C(=O)OC(C)(C)C)c1ccccc1 label=inactive
compound=CCN(CC)CCNC(=O)c1c(C)[nH]c(C=C2C(=O)Nc3ccc(F)cc32)c1C label=active
compound=Cc1cnc(NC(=O)Nc2cc(Br)c(C)cc2OC[C@@H]2CNCCO2)cn1 label=active
compound=CC(=O)O[C@H]1C[C@@H]2CC[C@H]3[C@H]4C[C@H]([N+]5(C)CCCCC5)[C@@H](OC(C)=O)[C@@]4(C)CC[C@@H]3[C@@]2(C)C[C@H]1[N+]1(C)CCCCC1 label=active
compound=COC(=O)[C@H](CCCN=C(N)N)NS(=O)(=O)c1ccc(C)cc1 label=inactive
compound=COc1ccnc2[nH]cc(C(=O)C(=O)N3CCN(C(=O)c4ccccc4)C[C@@H]3C)c12 label=inactive
compound=O=C(O)c1ccc(Nc2ncc3c(n2)-c2ccc(Cl)cc2C(c2c(F)cccc2F)=NC3)cc1 label=active
compound=N#CC(=Cc1ccc(O)c(O)c1)C(=O)NCc1ccccc1 label=active
compound=N#Cc1ccc(COC[C@H]2O[C@@H](n3c(NCc4ccc(Cl)c(Cl)c4)nc4c(N)ncnc43)[C@@H](O)[C@@H]2O)cc1 label=active
compound=COc1cccc2c1C(=O)c1c(O)c3c(c(O)c1C2=O)C[C@@](O)(C(C)=O)C[C@H]3O[C@H]1C[C@H](N)[C@H](O)[C@H](C)O1 label=active
compound=Cc1cc(Nc2ncc3c(n2)N(C)C(=O)N(c2cc(NC(=O)c4cccc(C(F)(F)F)c4)ccc2C)C3)n(C)n1 label=active
compound="CC(C(C)N1CC(=O)NC(=O)C1)N1CC(=O)NC(=O)C1 (stereo unspecified)" label=inactive
compound=O=S(=O)(O)CCSSCCS(=O)(=O)O label=active
compound=CCOC(=O)N1CCN([N+]([O-])=NOc2ccc([N+](=O)[O-])cc2C#N)CC1 label=active
compound=CN(C)c1ccc(C(=O)NCCCCCCC(=O)NO)cc1 label=active
